System: A2780
assayOverview: Anti-proliferative effect (CellTiter-Glo, 72 h), A2780
Type: cell-based
conditionNotes: A2780 cells, median, read-out: IC50 antiproliferation assay A2780 [M] (median)
assayMetric: IC50 (M)

(a) Cc1cc2c(OCCCc3c(C(=O)O)n4c5c(cccc35)-c3c(C)nn(C)c3COCCCC4)cccc2cc1F (single isomer, unassigned; enantiomer 2) [Example 051]
(b) Cc1ccc2c(C(C)CCOc3cccc4ccccc34)c(C(=O)O)n3c2c1-c1c(C)nn(C)c1COCCCC3 (single isomer, unassigned) [Example 258]
stdin: Input pair: a , b . Output: entry with lower IC50. Answer = label.
stdout: a
(a: 1.53e-05 M, b: 2.3e-05 M)

---

measuredTarget: UniProt Q07820
Sequence (Q07820 whole entry): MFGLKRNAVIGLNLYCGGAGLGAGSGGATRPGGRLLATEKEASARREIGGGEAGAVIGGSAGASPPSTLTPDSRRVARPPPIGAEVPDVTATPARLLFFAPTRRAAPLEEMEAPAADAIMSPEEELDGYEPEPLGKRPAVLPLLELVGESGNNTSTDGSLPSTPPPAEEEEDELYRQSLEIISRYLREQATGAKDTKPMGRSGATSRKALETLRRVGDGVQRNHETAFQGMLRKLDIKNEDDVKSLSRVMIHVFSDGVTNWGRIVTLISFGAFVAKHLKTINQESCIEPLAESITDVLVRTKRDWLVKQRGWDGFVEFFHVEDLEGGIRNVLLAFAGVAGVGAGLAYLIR
assayOverview: Protein-protein interaction assay MCL-1/Noxa BH3 peptide (MCL-1 assay), TR-FRET
Assay type: binding
conditionNotes: MBP-MCL-1 / Noxa BH3-derived peptide, median
assayMetric: IC50 (nM)

stdin: Using the record for Cc1ccc2c(CCCOc3cccc4ccccc34)c(C(=O)O)n3c2c1-c1c(C)nn(C)c1COCCCC3 (racemic) [Example 027] , report its IC50.
stdout: 5.27

(I) CCc1c2c(nn1C)COCCCCn1c(C(=O)O)c(CCCOc3cccc4cc(F)ccc34)c3cccc-2c31 (single isomer, unassigned) [Example 283]
(II) Cc1c2c(nn1CCN1CCOCC1)COCCCCn1c(C(=O)O)c(CCCOc3cccc4cc(F)ccc34)c3cccc-2c31 (racemic) [Example 284]
stdin: So which one has the bigger IC50 here, I or II ? API: response body contains the label of the selected item.
stdout: I

---

Tested on: SUDHL10
assayOverview: Induction of caspase-3/7 activity (Caspase-Glo 3/7), SUDHL10
Assay type: cell-based
conditionNotes: Homo sapiens, SU-DHL10, 3 h, caspase-3/7 induction, SUDHL10 cells, 3 h treatment; median
Where a name gives a salt, the structure may show the parent alone.
assayMetric: EC50 (µM)

stdin: Which measured EC50 value corresponds to CCc1nn(C)c2c1-c1cccc3c(CCCOc4cccc5c(F)cccc45)c(C(=O)O)n(c13)CCCCOC2 (racemic) [Example 298] ?
stdout: 20.5

stdin: Could you share which EC50 value was measured for Cc1c2c(nn1CCN(C)C)COCCCCn1c(C(=O)O)c(CCCOc3cccc4ccccc34)c3cccc-2c31 (racemic) [Example 243, Trifluoroacetic Acid Salt] ?
stdout: 16.5

stdin: Return reported EC50; argument: CCc1nn(C)c2c1-c1c(C)ccc3c(CCCOc4cccc5c4CCCC5)c(C(=O)O)n(c13)CCCCOC2 (racemic)
stdout: 19.3

stdin: Entry Cn1nc2c(c1C(F)(F)F)-c1cccc3c(CCCOc4cccc5ccccc45)c(C(=O)O)n(c13)CCCCOC2 (racemic) : reported EC50 = ?
stdout: 18.6

---

System: SUDHL5
assayOverview: Induction of cytotoxicity (CellTiter-Glo, 5 h), SUDHL5
conditionNotes: read-out: Cytotox SUDHL5 [M] (median); SUDHL5 cells, cytotoxicity induction, CellTiter-Glo, 5 h, median
Catalogue of IC50 readings, one per entry.
Reply numerically in M, unit not repeated.

Please review the following examples before continuing.
stdin: So what IC50 did Cc1nn(C)c2c1-c1cccc3c(CCCOc4cccc5ccccc45)c(C(=O)O)n(c13)CCCCOC2 (single isomer, unassigned; enantiomer 2) get with SUDHL5?
stdout: 1.62e-05

stdin: Lab note: need IC50 with SUDHL5 for entry Cc1ccc2c(CCCOc3cccc4cc(F)ccc34)c(C(=O)O)n3c2c1-c1c(nn(CCN2CCOCC2)c1C)COCCCC3 (single isomer, unassigned) [Example 294] , please look it up.
stdout: 5.95e-06

Here is the next item to consider.
stdin: Param readout = IC50; param system = SUDHL5; param query = Cc1c2c(nn1C)COCCCCn1c(C(=O)O)c(CCCOc3cccc4cc(Cl)ccc34)c3cccc-2c31 (single isomer, unassigned) [Example 296] ; response: value
stdout: 5.31e-06

---

System: SUDHL10
assayOverview: Induction of cytotoxicity (CellTiter-Glo, 5 h), SUDHL10
conditionNotes: read-out: Cytotox SUDHL10 [M] (median); SUDHL10 cells, cytotoxicity induction, CellTiter-Glo, 5 h incubation, median
# Lookup of reported IC50 keyed by entry
Give just the number in M; leave the unit off.

Worked examples, 6 compounds total:
stdin: I'd like to know its IC50. The compound in question is CC(C)OCc1nn(C)c2c1-c1cccc3c(CCCOc4cccc5ccccc45)c(C(=O)O)n(c13)CCCCN(C)C2 (single isomer, unassigned)
stdout: 1.42e-05

stdin: // IC50 lookup, key: Cn1nc2c(c1C(F)(F)F)-c1cccc3c(CCCOc4cccc5ccccc45)c(C(=O)O)n(c13)CCCCOC2 (single isomer, unassigned; enantiomer 1) [Example 194]
stdout: 1.63e-05

stdin: Quick check: IC50 of CCc1c2c(nn1CCN1CCOCC1)COCCCCn1c(C(=O)O)c(CCCOc3cccc4ccccc34)c3ccc(C)c-2c31 (single isomer, unassigned; enantiomer 2) [Example 206] ?
stdout: 1.6e-05

stdin: Form field: reported IC50 of Cn1nc(COc2ccc(C3=CCOCC3)cc2)c2c1COCCCCn1c(C(=O)O)c(CCCOc3cccc4ccccc34)c3cccc-2c31 (single isomer, unassigned) [Example 1-62]
stdout: 1.96e-05

stdin: Returns the measured IC50 for the input compound. Input: COCCn1nc2c(c1C)-c1cccc3c(CCCOc4cccc5ccccc45)c(C(=O)O)n(c13)CCCCOC2 (single isomer, unassigned; enantiomer 1) [Example 107]
stdout: 4.65e-06

stdin: For Cn1nc(COc2cncnc2)c2c1COCCCCn1c(C(=O)O)c(CCCOc3cccc4ccccc34)c3cccc-2c31 (single isomer, unassigned) , what is its reported IC50?
stdout: 2.02e-05

***
stdin: Value lookup for IC50; key = CCc1c2c(nn1C)CN(C)CCCn1c(C(=O)O)c(CCCOc3cccc4ccccc34)c3cccc-2c31 (single isomer, unassigned; enantiomer 2) [Example 143]
stdout: 2.69e-05

stdin: # get_value(readout='IC50', item= COC1(c2ccc(OCc3nn(C)c4c3-c3cccc5c(CCCOc6cccc7ccccc67)c(C(=O)O)n(c35)CCCCOC4)cc2)CCOCC1 (single isomer, unassigned) )
stdout: 2.29e-05

stdin: Field request: IC50 | item: CCCc1nn(C)c2c1-c1c(C)ccc3c(CCCOc4cccc5ccccc45)c(C(=O)O)n(c13)CCCN(C)C2 (single isomer, unassigned; enantiomer 2) [Example 197]
stdout: 1.55e-05

---

System: SUDHL5
assayOverview: Induction of cytotoxicity (CellTiter-Glo, 5 h), SUDHL5
conditionNotes: read-out: Cytotox SUDHL5 [M] (median); SUDHL5 cells, cytotoxicity induction, CellTiter-Glo, 5 h incubation, median
Measured IC50, listed per entry for reference.
// return numeric value only (unit: M, not printed)

stdin: Give the measured IC50 of COCc1nn(C)c2c1-c1cccc3c(CCCOc4cccc5ccccc45)c(C(=O)O)n(c13)CCCN(C)C2 (single isomer, unassigned; enantiomer 2) .
stdout: 7.21e-06

stdin: Please give the measured IC50 for this compound: Cc1c2c(nn1C)CN(C)CCCn1c(C(=O)O)c(CCCOc3cccc4ccccc34)c3cccc-2c31 (single isomer, unassigned; enantiomer 2) [Example 1-35]
stdout: 2.02e-05

stdin: Item O=C(O)c1c(CCCOc2cccc3ccccc23)c2cccc3c2n1CCCCOCc1nn2c(c1-3)COCC2 (single isomer, unassigned) [Example 252] has what recorded IC50?
stdout: 5.17e-06

stdin: Data request, read-out IC50, for COCCn1nc2c(c1C)-c1cccc3c(CCCOc4cccc5ccccc45)c(C(=O)O)n(c13)CCCCOC2 (single isomer, unassigned; enantiomer 1) [Example 107]
stdout: 1.73e-06

stdin: // IC50 lookup, key: CCc1c2c(nn1C)COCCCCn1c(C(=O)O)c(CCCOc3cccc4ccccc34)c3cccc-2c31 (single isomer, unassigned; enantiomer 1) [Example 148]
stdout: 9.08e-07

---
stdin: Given COCc1nn(C)c2c1-c1cccc3c(CCCOc4cccc5ccccc45)c(C(=O)O)n(c13)CCCCN(C)C2 (single isomer, unassigned; enantiomer 1) [Example 184] , state its recorded IC50.
stdout: 8.82e-07

stdin: Query: IC50; subject: CN1CCCCn2c(C(=O)O)c(CCCOc3cccc4ccccc34)c3cccc(c32)-c2c(CC(F)(F)F)nn(C)c2C1 (single isomer, unassigned) [Example 223]
stdout: 8.33e-06

stdin: I am curious: what IC50 value has been reported for COCc1nn(C)c2c1-c1cccc3c(CCCOc4cccc5ccccc45)c(C(=O)O)n(c13)CCCCCOC2 (single isomer, unassigned; enantiomer 2) ?
stdout: 1.22e-05

---

Tested on: A2780
assayOverview: Anti-proliferative effect (CellTiter-Glo, 72 h), A2780
Format: cell-based
conditionNotes: A2780 cells, median, read-out: IC50 antiproliferation assay A2780 [M] (median)
assayMetric: IC50

// solved cases for IC50 follow
stdin: Form field: reported IC50 of O=C(O)c1c(CCCOc2cccc3ccccc23)c2cccc3c2n1CCCCOCc1nn2c(c1-3)OCCC2 (single isomer, unassigned) [Example 248]
stdout: > 3.3e-05 M

stdin: If you can, please state the reported IC50 value of CCc1nn(C)c2c1-c1c(C)ccc3c(C(C)CCOc4cccc5ccccc45)c(C(=O)O)n(c13)CCCCOC2 (single isomer, unassigned) [Example 275] .
stdout: 7.02e-06 M

stdin: Value lookup for IC50; key = Cn1nc(COC2CC2)c2c1COCCCCn1c(C(=O)O)c(CCCOc3cccc4ccccc34)c3cccc-2c31 (single isomer, unassigned) [Example 214]
stdout: > 3.3e-05 M

Now take the following molecule into account.
stdin: So what's the measured IC50 for this one? CCc1nn(C)c2c1-c1cccc3c(CCCOc4cccc5c(F)cccc45)c(C(=O)O)n(c13)CCCCOC2 (single isomer, unassigned)
stdout: > 3.3e-05 M
